- Subject of test: T1, human insulin receptor (human, UniProt P06213 28-1382)
- T1 construct: whole, on cells; Endogenous receptor on IM-9 cells; also called IR
- Assay method text: competition with biotinylated RHI on IM-9 cells, flow cytometry, 4 C
Reported endpoint: pIC50
Lab note: report pIC50 as minus log10 of the concentration in molar units, number only.

Recorded pIC50, per entry:
insulin-Fc fusion protein of SEQ ID NO: 112 (Fc fusion, Feline IgG2 Fc, B16A insulin polypeptide; homodimer) FVNQHLCGSDLVEALALVCGERGFFYTDPTGGGPRRGIVEQCCHSICSLYQLENYCNGGGGSGGGGGEGPKCPVPEIPGAPSVFIFPPKPKDTLSISRTPEVTCLVVDLGPDDSNVQITWFVDNTEMHTAKTRPREEQFNSTYRVVSVLPILHQDWLKGKEFKCKVNSKSLPSAMERTISKAKGQPHEPQVYVLPPTQEELSENKVSVTCLIKGFHPPDIAVEWEITGQPEPENNYQTTPPQLDSDGTYFLYSRLSVDRSHWQRGNTYTCSVSHEALHSHHTQKSLTQSPG; 7.28
insulin-Fc fusion protein of SEQ ID NO: 32 (Fc fusion, homodimer; also called 218d) FVNQHLCGSHLVEALELVCGERGFHYGGGGGGSGGGGGIVEQCCTSTCSLDQLENYCGGGGGQGGGGQGGGGQGGGGGDCPKCPAPEMLGGPSVFIFPPKPKDTLLIARTPEVTCVVVDLDPEDPEVQISWFVDGKQMQTAKTQPREEQFNGTYRVVSVLPIGHQDWLKGKQFTCKVNNKALPSPIERTISKARGQAHQPSVYVLPPSREELSKNTVSLTCLIKDFFPPDIDVEWQSNGQQEPESKYRTTPPQLDEDGSYFLYSKLSVDKSRWQRGDTFICAVMHEALHNHYTQESLSHSPG; 5.63

// next item, pIC50 requested
For insulin-Fc fusion protein of SEQ ID NO: 116 (Fc fusion, homodimer) FVNQHLCGSHLVEALALVCGERGFFYTDPAGGGPRRGIVEQCCASVCSLYQLEHYCGGGGAGGGGGEGPKCPVPEIPGAPSVFIFPPKPKDTLSISRTPEVTCLVVDLGPDDSNVQITWFVDNTEMHTAKTRPREEQFSSTYRVVSVLPILHQDWLKGKEFKCKVNSKSLPSAMERTISKAKGQPHEPQVYVLPPTQEELSENKVSVTCLIKGFHPPDIAVEWEITGQPEPENNYQTTPPQLDSDGTYFLYSRLSVDRSHWQRGNTYTCSVSHEALHSHHTQKSLTQSPG the binder record lists pIC50 as 6.15
